# target desc: T1, human CD166 protein (human, UniProt Q13740 28-526, limits assumed)
# T1 construct: Isolated human CD166 protein coated on ELISA plates; also called ALCAM
# T1 sequence (looked up): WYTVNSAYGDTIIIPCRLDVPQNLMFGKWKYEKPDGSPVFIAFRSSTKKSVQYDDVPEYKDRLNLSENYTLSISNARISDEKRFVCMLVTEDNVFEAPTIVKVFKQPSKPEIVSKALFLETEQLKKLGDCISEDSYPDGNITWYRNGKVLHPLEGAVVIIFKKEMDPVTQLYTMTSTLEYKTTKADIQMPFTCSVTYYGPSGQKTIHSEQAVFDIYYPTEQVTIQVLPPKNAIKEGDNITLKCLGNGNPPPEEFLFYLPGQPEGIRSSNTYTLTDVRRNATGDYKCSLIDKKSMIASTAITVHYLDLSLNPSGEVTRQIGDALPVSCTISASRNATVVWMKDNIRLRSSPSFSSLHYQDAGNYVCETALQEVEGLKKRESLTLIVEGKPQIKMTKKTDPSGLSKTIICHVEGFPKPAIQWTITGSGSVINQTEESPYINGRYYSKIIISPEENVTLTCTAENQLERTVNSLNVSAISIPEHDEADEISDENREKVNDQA
# assay explanation: ELISA; relative to parental CD166 M9 vk1/HcB
quantity name: Fold Increase in Kd (fold)
Field: numeric (fold). Do not append units.

1. CD166-7614.12-2001 (antibody) chain 1: QITLKESGPTLVKPTQTLTLTCTFSGFSLSTYGMGVGWIRQPPGKALEWLANIWWSEDKHYSPSLKSRLTITKDTSKNQVVLTMTNMDPVDTATYYCVQIDYGNDYAFTYWGQGTLVTVSS chain 2: QGQSGQGHPLVLGGGSSGGSISSGLLSGRSDNHGGGSDIVMTQSPLSLPVTPGEPASISCRSSKSLLHSNGITYLYWYLQKPGQSPQLLIYQMSNLASGVPDRFSGSGSGTDFTLKISRVEAEDVGVYYCAQNLELPYTFGQGTKLEIK	75

Moving on to another binder below.
INPUT: Quick one: Fold Increase in Kd of CD166-16522.16-2001 (antibody) chain 1: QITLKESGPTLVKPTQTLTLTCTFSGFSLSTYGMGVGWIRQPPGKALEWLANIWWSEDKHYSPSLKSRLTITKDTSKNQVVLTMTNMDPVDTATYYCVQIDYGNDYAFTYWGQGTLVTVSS chain 2: QGQSGQGLEGWCLAPLCLWGAGGGGSSGGSISSGLLSGRSDNHGGGSDIVMTQSPLSLPVTPGEPASISCRSSKSLLHSNGITYLYWYLQKPGQSPQLLIYQMSNLASGVPDRFSGSGSGTDFTLKISRVEAEDVGVYYCAQNLELPYTFGQGTKLEIK ?
OUTPUT: 11
